Data provenance is a melting point compilation (Tetko et al.; mined from patent text by program, amines drawn as free bases though some values may be those of a salt).

parameter: melting point

# annotated cases, reported melting point shown
1. O=S1(=O)N(CCCCBr)c2ccccc2N1c1ccc(Cl)cc1	65 to 68 °C
2. CC(=O)N(C(=O)N1CC(c2ccc(Cl)cc2)C(c2ccc(Cl)cc2)=N1)c1ccc(C(F)(F)F)cc1 (stereo unspecified)	166 to 168 °C
3. CCOC(=O)C1=C(C)OC(=O)C1=C(C)O	106 to 108 °C
4. Cc1nc[nH]c1CSCCNC(N)=C[N+](=O)[O-]	193 to 195 °C
5. CCOC(=O)C1=C(C)NC(=O)N(C(=O)OCC)C1c1cccc([N+](=O)[O-])c1Cl (stereo unspecified)	176 to 178 °C
6. CCCCc1nc(Cl)c(C=O)n1Cc1cccc2c1ncn2-c1ccccc1C#N	117 to 135 °C
7. O[C@@H]1C=CC=C(Cl)[C@@H]1O (relative stereo)	95 to 96 °C
8. CN1CCC(C2Nc3cc(Br)ccc3N3CCc4cccc2c43)CC1 (stereo unspecified)	206 to 208 °C

Read the next record carefully.
Assign melting point to the following record: CC(C)(C)C(=O)C=CC1C(C(=O)OC(C#N)c2cccc(Oc3ccccc3)c2)C1(C)C (stereo unspecified)
89 °C
